tested on: TK-10 renal; test: NCI tumour cell line growth inhibition, 48 h
Property measured: GI50

The molecule listed as COc1cc(-c2nc3ccccc3o2)cc(CN2CCCCC2)c1O has a reported GI50 of 31.2 µM

The molecule listed as CCOC(=O)c1c(C)nc2c(c1N)/C(=C/c1ccccn1)C(=O)N2Cc1ccccc1 has a reported GI50 of 1.51 µM

The molecule listed as O=C1Cc2cc(CCn3cncn3)c(Cl)cc2N1 has a reported GI50 of > 100 µM

The molecule listed as CCN(CC)CCN1c2nc3ccccc3cc2Sc2cc3ccccc3nc21 has a reported GI50 of 3.54 µM

The molecule listed as CCOc1ccc(C(C[N+](=O)[O-])Sc2ccccc2N)cc1 (stereo not drawn) has a reported GI50 of 15.4 µM

The molecule listed as O=C(Nc1cc(Cl)cc(Cl)c1)c1cccc(NC2=C(Cl)C(=O)N(Cc3ccccc3)C2=O)c1 has a reported GI50 of 31.8 µM

The molecule listed as C#C[C@@]1(O)[C@@H](CO)O[C@@H](n2cc(C(F)(F)F)c3c(N)ncnc32)[C@@H]1O has a reported GI50 of 0.966 µM

The molecule listed as O=C(NCCOCCOCCOCCNC(=O)c1cc2c(o1)C(=O)c1ccccc1C2=O)NC12CC3CC(CC(C3)C1)C2 has a reported GI50 of 3.68 µM

The measured values listed here are drawn from PubChem BioAssay (NCI).
